test system: LXRb:RXRa (NR concentration 270 nM, RXRa partner concentration 90 nM); experiment: PBM binding z-score (relative to random genomic background probes); higher = stronger binding; sequences stand for … in GC…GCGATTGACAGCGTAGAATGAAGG
property.label: PBM binding z-score
API note: the answer field is a bare number with no unit suffix.

Ask: Could you share what PBM binding z-score was measured for CCTAGTTGGTCTAGGTCACACACGCTATAGGTAC , tested on LXRb:RXRa (NR concentration 270 nM, RXRa partner concentration 90 nM)?
Reply: 1.68

Ask: Could you share what PBM binding z-score was measured for ATATGTAGGTTACATCCGGGTCATTCATGCTATG , tested on LXRb:RXRa (NR concentration 270 nM, RXRa partner concentration 90 nM)?
Reply: 3.05

Ask: Could you share what PBM binding z-score was measured for CGAACTAGGTCAGTGACAGGACAGTGAATAGTAA , tested on LXRb:RXRa (NR concentration 270 nM, RXRa partner concentration 90 nM)?
Reply: 0.82

Ask: Could you share what PBM binding z-score was measured for CGTCCAAGTTCAAGGTCAGTGAAAGAGACTCGAA , tested on LXRb:RXRa (NR concentration 270 nM, RXRa partner concentration 90 nM)?
Reply: 3.18

Ask: Could you share what PBM binding z-score was measured for TCTAGTTGGACAAAGGTCACACACTCGAAATGCG , tested on LXRb:RXRa (NR concentration 270 nM, RXRa partner concentration 90 nM)?
Reply: 5.38

Ask: Could you share what PBM binding z-score was measured for TCGAGTAGGTTAATCGGGGCATTCAGCCAACATA , tested on LXRb:RXRa (NR concentration 270 nM, RXRa partner concentration 90 nM)?
Reply: 0.859

----------
test system: PPARg DBDmut:RXRa IVT, anti-PPARg (DBD mutation: PPARg1 K132A/R137A, NR concentration 270 nM, RXRa partner concentration 90 nM); test: PBM binding z-score (relative to random genomic background probes); higher = stronger binding; sequences stand for … in GC…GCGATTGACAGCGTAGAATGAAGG
Measured PBM binding z-score, listed per entry.
API note: the answer field is a bare number with no unit suffix.

Recorded PBM binding z-score, per entry:
{"columns": ["entry.sequence", "PBM binding z-score"],
 "data": [
  ["ATATGTAGGTTATCGGGTCATTCCGTTTGCGCAT", 4.25],
  ["TCGAGTACGTTAGGGGCATTCAGAATGGCGTCGA", -1.29],
  ["AGAATGAGGTTCCCAAAGATCAGGGAAACGCTTG", 1.11],
  ["CAAACTAGGTGACGAAAGGTCAAAGTCGAATGAC", 1.7],
  ["CAAACTAGGTCAAAGGTCTAAGTCGAGCCAACCA", 8.12],
  ["CCAGACAGGTGAGAAGGTAATTCAGCCTCGATTA", -0.0729],
  ["GCTAGCCGGCCATTTGGGTCACTCAATGACGGGC", -0.74],
  ["TCATACAGGTGAAGGTAACTCAGGTACGCAGTCG", 0.347],
  ["TGAATAAGGTTAAAGATCAGGGAACGTGGCGTCG", 0.601],
  ["GCTGCTAGGTCAGGTTGGTCATCTAACGGGTACG", -0.672]
]}

Ask: # PBM binding z-score lookup, item CTCGAAAGGTCGGTCGAGGTGAGTATACGGATAA
Reply: 0.0612
